- subject of test: Histone deacetylase 1 (Homo sapiens) (UniProt Q13547)
- Sequence (Q13547 whole entry): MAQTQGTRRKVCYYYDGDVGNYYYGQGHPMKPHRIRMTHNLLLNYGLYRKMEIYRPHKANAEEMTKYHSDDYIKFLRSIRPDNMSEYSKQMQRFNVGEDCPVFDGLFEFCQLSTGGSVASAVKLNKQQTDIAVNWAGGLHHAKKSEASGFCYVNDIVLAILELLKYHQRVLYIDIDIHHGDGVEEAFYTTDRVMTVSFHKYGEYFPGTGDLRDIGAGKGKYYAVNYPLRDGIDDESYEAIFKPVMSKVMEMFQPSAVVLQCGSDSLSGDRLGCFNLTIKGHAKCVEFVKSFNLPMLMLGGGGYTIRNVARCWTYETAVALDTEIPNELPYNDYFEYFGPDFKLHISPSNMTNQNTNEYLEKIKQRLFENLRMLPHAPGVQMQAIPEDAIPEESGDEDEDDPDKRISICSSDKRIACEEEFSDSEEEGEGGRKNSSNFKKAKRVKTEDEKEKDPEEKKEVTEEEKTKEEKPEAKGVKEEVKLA
- test name: Inhibition of HDAC1
measurement name: Inflection point (nM)

A. Nc1ccccc1NC(=O)c1ccc(C(C(=O)Nc2ccc3ccccc3c2)N2CCN(CCc3ccccc3)CC2)cc1 (stereo not drawn)
B. Nc1ccccc1NC(=O)c1ccc(C(NC(=O)CCc2ccccc2)C(=O)Nc2ccc3ccccc3c2)cc1 (stereo not drawn)
C. CN1CCN(C(C(=O)NCc2ccccc2)c2ccc3cc(C(=O)Nc4ccccc4N)sc3c2)CC1 (stereo not drawn)
Ask: Consider the compounds listed above. Rank them by Inflection point in ascending numerical order. # respond with the labels, arranged in the requested order
Reply: C, B, A

----------
- subject of test: Histone deacetylase 1 (Homo sapiens) (UniProt Q13547)
- test name: Inhibition of HDAC1
measurement name: Inflection point (nM)

Nc1ccccc1NC(=O)c1cc2ccc(C(NCc3cccnc3)C(=O)NCc3ccccc3)cc2s1 (centres undefined) = 180
COc1ccc(NC(=O)C(NC(=O)Cc2ccccc2)c2ccc(C(=O)Nc3ccccc3N)cc2)cc1 (centres undefined) = 870
Nc1ccccc1NC(=O)c1cc2ccc(C(NCCc3ccncc3)C(=O)NCc3ccccc3)cc2s1 (centres undefined) = 39
Cc1ccc(NC(=O)C(NC(=O)CCc2ccccc2)c2ccc(C(=O)Nc3ccccc3N)cc2)cc1 (centres undefined) = 340
COc1ccc(NC(=O)C(NCCc2ccccc2)c2ccc3cc(C(=O)Nc4ccccc4N)sc3c2)cc1 (centres undefined) = 71
Nc1ccccc1NC(=O)c1cc2ccc(C(NCCc3ccccc3)C(=O)NCCN3CCOCC3)cc2s1 (centres undefined) = 230
COc1ccc(NC(=O)C(NCCc2ccncc2)c2ccc3cc(C(=O)Nc4ccccc4N)sc3c2)cc1 (centres undefined) = 32
COc1ccc(CNC(C(=O)Nc2ccc(OC)cc2)c2ccc3cc(C(=O)Nc4ccccc4N)sc3c2)cc1 (centres undefined) = 90
CN1CCN(C(C(=O)Nc2ccc(Cl)cc2)c2ccc3cc(C(=O)Nc4ccccc4N)sc3c2)CC1 (centres undefined) = 62
Cc1ccc(NC(=O)C(NC(=O)Cc2ccccc2)c2ccc(C(=O)Nc3ccccc3N)cc2)cc1 (centres undefined) = 690

A. CCN1CCN(C(C(=O)NCc2ccccc2)c2ccc3cc(C(=O)Nc4ccccc4N)sc3c2)CC1 (centres undefined)
B. CN1CCN(C(C(=O)NCc2ccccc2)c2ccc(C(=O)Nc3ccccc3N)cc2)CC1 (centres undefined)
C. CN(C)CCNC(C(=O)NCc1ccccc1)c1ccc2cc(C(=O)Nc3ccccc3N)sc2c1 (centres undefined)
D. CN1CCN(C(C(=O)Nc2ccc3ccccc3c2)c2ccc3cc(C(=O)Nc4ccccc4N)sc3c2)CC1 (centres undefined)
E. CN1CCN(C(C(=O)Nc2ccc3ccccc3c2)c2ccc(C(=O)Nc3ccccc3N)cc2)CC1 (centres undefined)
Ask: Please list these compounds in decreasing order of Inflection point. Please express your ranking as an ordered list of the labels.
Reply: B, E, C, A, D

----------
- subject of test: Histone deacetylase 1 (Homo sapiens) (UniProt Q13547)
- test name: Inhibition of HDAC1
measurement name: Inflection point (nM)

CN1CCN(C(Cc2ccc(C(=O)Nc3ccccc3N)cc2)C(=O)Nc2ccc3ccccc3c2)CC1 (centres undefined) = 37
CC(C)(C)OC(=O)N1CCN(C(C(=O)NCc2ccccc2)c2ccc3cc(C(=O)Nc4ccccc4N)sc3c2)CC1 (centres undefined) = 260

I. COc1ccc(NC(=O)C(NC(=O)CCc2ccccc2)c2ccc(C(=O)Nc3ccccc3N)cc2)cc1 (centres undefined)
II. COc1ccc(NC(=O)C(NCc2ccccc2)c2ccc3cc(C(=O)Nc4ccccc4N)sc3c2)cc1 (centres undefined)
Ask: # returns the entry with the larger Inflection point; inputs I and II Kindly state the label of the option you pick.
Reply: I

----------
- subject of test: Histone deacetylase 1 (Homo sapiens)
- test name: Inhibition of HDAC1
measurement name: Inflection point (nM)

Sample records with Inflection point:
Cc1ccc(NC(=O)C(c2ccc3cc(C(=O)Nc4ccccc4N)sc3c2)N2CCN(C)CC2)cc1 (single isomer, unassigned; enantiomer 1) = 21
Nc1ccccc1NC(=O)c1cc2ccc(C(NCCc3ccccn3)C(=O)NCc3ccccc3)cc2s1 (centres undefined) = 110
Nc1ccccc1NC(=O)c1ccc(C(C(=O)Nc2ccc3ccccc3c2)N2CCN(c3ccccc3)CC2)cc1 (centres undefined) = 620

A. Nc1ccccc1NC(=O)c1ccc(C(NC(=O)Cc2ccccc2)C(=O)Nc2ccc3ccccc3c2)cc1 (centres undefined)
B. COc1ccc(NC(=O)C(NC2CCCCC2)c2ccc3cc(C(=O)Nc4ccccc4N)sc3c2)cc1 (centres undefined)
Ask: Lower value for measured Inflection point? Options: A , B Reply with the label of the item you choose.
Reply: B

I. Nc1ccccc1NC(=O)c1cc2ccc(C(C(=O)NCc3ccccc3)N3CCN(c4ccccc4)CC3)cc2s1 (centres undefined)
II. Nc1ccccc1NC(=O)c1cc2ccc(C(C(=O)NCc3ccccc3)N3CCN(C/C=C/c4ccccc4)CC3)cc2s1 (centres undefined)
III. CN1CCN(C(C(=O)Nc2ccc(Cl)cc2)c2ccc(C(=O)Nc3ccccc3N)cc2)CC1 (centres undefined)
IV. Cc1ccc(NC(=O)C(c2ccc3cc(C(=O)Nc4ccccc4N)sc3c2)N2CCN(C)CC2)cc1 (racemic)
V. COc1ccc(NC(=O)C(NCc2ccccc2)c2ccc3cc(C(=O)NO)sc3c2)cc1 (centres undefined)
Ask: Please list these in order of increasing Inflection point. Thank you! Show the ranking through the labels, in the order asked for.
Reply: V, IV, I, II, III

a. CN1CCN(C(Cc2ccc(C(=O)Nc3ccccc3N)cc2)C(=O)Nc2ccc(Cl)cc2)CC1 (centres undefined)
b. COCCNC(C(=O)NCc1ccccc1)c1ccc2cc(C(=O)Nc3ccccc3N)sc2c1 (centres undefined)
c. COc1ccc(NC(=O)C(c2ccc3cc(C(=O)Nc4ccccc4N)sc3c2)N2CCN(C)CC2)cc1 (centres undefined)
d. Nc1ccccc1NC(=O)c1cc2ccc(C(NCCc3ncc[nH]3)C(=O)NCc3ccccc3)cc2s1 (centres undefined)
e. Nc1ccccc1NC(=O)c1cc2ccc(C(NCCc3ccccc3)C(=O)NCc3ccccc3)cc2s1 (centres undefined)
Ask: List these items ordered by Inflection point, big to small. Lab note: final answer is the ordered label list.
Reply: d, a, b, e, c

a. Nc1ccccc1NC(=O)c1cc2ccc(C(C(=O)NCc3ccccc3)N3CCN(CCc4ccccc4)CC3)cc2s1 (centres undefined)
b. Cc1ccc(NC(=O)C(c2ccc3cc(C(=O)Nc4ccccc4N)sc3c2)N2CCN(C)CC2)cc1 (single isomer, unassigned; enantiomer 2)
Ask: Among a and b , whose measured Inflection point is the smaller figure? Give the label under which the chosen entry appears.
Reply: b

I. Nc1ccccc1NC(=O)c1cc2ccc(C(NCCO)C(=O)NCc3ccccc3)cc2s1 (centres undefined)
II. Nc1ccccc1NC(=O)c1cc2ccc(C(C(=O)NCc3ccccc3)N3CCN(C(=O)OCc4ccccc4)CC3)cc2s1 (centres undefined)
Ask: Lab log: flag the item ( I or II ) with the smaller Inflection point figure. Output the label that corresponds to your choice.
Reply: I
(I: 150 nM, II: 470 nM)

Values were extracted from ChEMBL document CHEMBL1140793.
